- target_desc: T1, COVID-19 nucleocapsid protein (N-protein) (severe acute respiratory syndrome …, UniProt P0DTC9 1-419)
- T1 construct: also called nucleocapsid protein (N-protein) of severe acute respiratory syndrome coronavirus 2 (SARS-CoV-2)
- method_description: bio-layer interferometry (BLI)
pKd: −log10 of the molar value.

[
  {
    "binder": "ACLEAGQRCQWGRTCA (Ci, Cii and Ciii cysteines covalently bound to TATA scaffold) [BCY17644]",
    "pKd": 6.17
  },
  {
    "binder": "ACEGDFCDGRYIVNTCA (Ci, Cii and Ciii cysteines covalently bound to TBMT scaffold) [BCY17627]",
    "pKd": 7.43
  },
  {
    "binder": "ACTVDVCAITGVQIPCA (Ci, Cii and Ciii cysteines covalently bound to TATA scaffold) [BCY19568]",
    "pKd": 5.73
  }
]
